# target-under-test: human OX2R (Homo sapiens, UniProt O43614)
# Construct: expressed in transfected cells; host or cells: Chinese hamster ovary (CHO) cells, kept under G418 selection
# assay-remarks: IPOne (IP-One) orexin receptor agonist assay in CHO cells expressing human OX2R
# Assay type: cell-based
# recorded-conditions: CHO cells expressing human OX2R; IP-One detection; 2 hours incubation; four parameter logistic fit; read-out: OX2R Potency, EC50
property: EC50 (µM)

Consider the following illustrative entries.
CS(=O)(=O)N[C@H]1CCN(c2csc(C3CC3)n2)[C@H]1CO[C@H]1CC[C@@H](c2ccccc2)CC1    0.271
CS(=O)(=O)N[C@H]1CCN(c2cc(OC(F)F)c(F)cn2)[C@H]1CO[C@H]1CC[C@@H](c2ccccc2)CC1    0.299
Cc1ncc(N2CC[C@H](NS(C)(=O)=O)[C@@H]2CO[C@H]2CC[C@@H](c3ccccc3)CC2)cn1    0.251

a: COc1cccc(N2CC[C@H](NS(C)(=O)=O)[C@@H]2CO[C@H]2CC[C@@H](c3ccccc3)CC2)c1
b: CS(=O)(=O)N[C@H]1CCN(c2cc(O)ncn2)[C@H]1CO[C@H]1CC[C@@H](c2ccccc2)CC1
c: CS(=O)(=O)N[C@H]1CCN(c2ccnc(CO)c2)[C@H]1CO[C@H]1CC[C@@H](c2ccccc2)CC1
d: CS(=O)(=O)N[C@H]1CCN(c2nc(Br)cs2)[C@H]1CO[C@H]1CC[C@@H](c2ccccc2)CC1
# input Highest EC50 first, then in falling order down to the smallest. Please express your ranking as an ordered list of the labels.
# output c, a, d, b

I: CS(=O)(=O)N[C@H]1CCN(c2ncc(F)c(O)c2F)[C@H]1CO[C@H]1CC[C@@H](c2cccc(F)c2)CC1
II: CS(=O)(=O)N[C@H]1CCN(c2ncc(Cl)c(O)c2F)[C@H]1CO[C@H]1CC[C@@H](c2cccc(F)c2)CC1
# input Which shows the larger EC50 value: I or II ? Kindly state the label of the option you pick.
# output I

a: CS(=O)(=O)N[C@H]1CCN(c2cc(O)ccn2)[C@H]1CO[C@H]1CC[C@@H](c2ccccc2)CC1
b: Cc1nc(N2CC[C@H](NS(C)(=O)=O)[C@@H]2CO[C@H]2CC[C@@H](c3ccccc3)CC2)cs1
c: CS(=O)(=O)N[C@H]1CCN(c2ncccc2C(F)(F)F)[C@H]1CO[C@H]1CC[C@@H](c2ccccc2)CC1
d: CS(=O)(=O)N[C@H]1CCN(c2cnccc2OCc2ccccc2)[C@H]1CO[C@H]1CC[C@@H](c2ccccc2)CC1
e: CC(C)[C@H]1CC[C@@H](OC[C@H]2[C@@H](NS(C)(=O)=O)CCN2c2nccc(O)c2F)CC1
# input List these items ordered by EC50, big to small. Answer by writing out the labels in the requested order.
# output d, c, b, e, a

* * *

# target-under-test: human OX2R (Homo sapiens)
# assay-remarks: IPOne (IP-One) orexin receptor agonist assay in CHO cells expressing human OX2R
# recorded-conditions: CHO cells expressing human OX2R; IP-One detection; 2 hours incubation; four parameter logistic fit; read-out: OX2R Potency, EC50
pEC50: −log10 of the molar value.
property: pEC50

These solved cases illustrate the format of a correct answer.
CS(=O)(=O)N[C@H]1CCN(c2ccc(OC(F)F)nc2)[C@H]1CO[C@H]1CC[C@@H](c2ccccc2)CC1    6.79
CS(=O)(=O)N[C@H]1CCN(c2cccc(C#N)n2)[C@H]1CO[C@H]1CC[C@@H](c2ccccc2)CC1    5.85
CS(=O)(=O)N[C@H]1CCN(c2cnc3oncc3c2)[C@H]1CO[C@H]1CC[C@@H](c2ccccc2)CC1    6.03
CS(=O)(=O)N[C@H]1CCN(c2cncc(C#N)c2)[C@H]1CO[C@H]1CC[C@@H](c2ccccc2)CC1    6.00

A: Cn1ccc(N2CC[C@H](NS(C)(=O)=O)[C@@H]2CO[C@H]2CC[C@@H](c3ccccc3)CC2)cc1=O
B: Cc1ccnc(N2CC[C@H](NS(C)(=O)=O)[C@@H]2CO[C@H]2CC[C@@H](c3ccccc3)CC2)c1
# input // which entry reports the smaller pEC50, A or B ? Please reply using the label of the selected record.
# output B

* * *

# target-under-test: human OX2R (Homo sapiens, UniProt O43614)
# Sequence (O43614 1-444): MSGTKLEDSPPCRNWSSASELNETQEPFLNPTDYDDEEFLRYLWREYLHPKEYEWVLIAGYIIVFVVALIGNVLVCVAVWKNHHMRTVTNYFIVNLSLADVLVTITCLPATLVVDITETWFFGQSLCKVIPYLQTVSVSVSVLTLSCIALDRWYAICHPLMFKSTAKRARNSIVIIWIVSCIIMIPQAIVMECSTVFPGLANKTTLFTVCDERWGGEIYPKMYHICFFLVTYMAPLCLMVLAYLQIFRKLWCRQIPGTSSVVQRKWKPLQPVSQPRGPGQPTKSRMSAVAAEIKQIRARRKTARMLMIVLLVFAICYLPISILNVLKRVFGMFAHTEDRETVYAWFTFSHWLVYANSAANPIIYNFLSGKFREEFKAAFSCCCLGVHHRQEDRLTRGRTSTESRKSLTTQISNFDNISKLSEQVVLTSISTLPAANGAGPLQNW
# assay-remarks: IPOne (IP-One) orexin receptor agonist assay in CHO cells expressing human OX2R
# recorded-conditions: CHO cells expressing human OX2R; IP-One detection; 2 hours incubation; four parameter logistic fit; read-out: OX2R Potency, EC50
property: EC50 (nM)

// solved cases for EC50 follow
C[C@@H]1C[C@H](NS(C)(=O)=O)[C@H](CO[C@H]2CC[C@@H](c3cccc(F)c3)CC2)N1c1[nH]ccc(=O)c1F    0.72
C[C@@H]1C[C@H](NS(C)(=O)=O)[C@H](CO[C@H]2CC[C@@H](c3ccccc3)CC2)N1c1nnnn1C    1.8
CS(=O)(=O)N[C@H]1CCN(c2cncc(CO)c2)[C@H]1CO[C@H]1CC[C@@H](c2ccccc2)CC1    217
CS(=O)(=O)NC1CCCN(c2cccnc2)C1CO[C@H]1CC[C@@H](c2ccccc2)CC1 (some centres unmarked)    10.1
C[C@@H]1C[C@H](NS(=O)(=O)N(C)C)[C@H](CO[C@H]2CC[C@@H](c3cccc(F)c3)CC2)N1c1nccc(O)c1F    0.45
CS(=O)(=O)N[C@H]1CCN(c2nccc(O)c2F)[C@H]1COC1CCC(c2ccccc2C(F)(F)F)CC1 (some centres unmarked)    6.1

A: CS(=O)(=O)N[C@H]1CCN(c2nccc(O)c2Cl)[C@H]1CO[C@H]1CC[C@@H](c2ccccc2)CC1
B: CS(=O)(=O)N[C@H]1CCN(c2nccc(O)c2F)[C@H]1CO[C@H]1CC[C@@H](c2c(F)ccc(F)c2F)CC1
C: CS(=O)(=O)N[C@H]1CCN(c2cncc(O)n2)[C@H]1CO[C@H]1CC[C@@H](c2ccccc2)CC1
D: Cc1sc(N2CC[C@H](NS(C)(=O)=O)[C@@H]2CO[C@H]2CC[C@@H](c3ccccc3)CC2)nc1Br
E: CS(=O)(=O)N[C@H]1CCN(c2ncccc2C(F)F)[C@H]1CO[C@H]1CC[C@@H](c2ccccc2)CC1
# input # sort list by recorded EC50, greatest to least Returns: the labels arranged in the requested order.
# output D, C, E, A, B
(D: 1700 nM, C: 258 nM, E: 150 nM, A: 10.8 nM, B: 2 nM)

* * *

# target-under-test: human OX2R (Homo sapiens)
# Construct: expressed in transfected cells; host or cells: Chinese hamster ovary (CHO) cells, kept under G418 selection
# assay-remarks: IPOne (IP-One) orexin receptor agonist assay in CHO cells expressing human OX2R
# Assay type: cell-based
# recorded-conditions: human OX2R; percentage of sample raw value/mean max effect (reference compound at 1 uM with 100% activity)
property: % max agonist effect (Emax) (%)

Solved entries (count: 3):
CS(=O)(=O)N[C@H]1CCN(c2ccnc(C#N)c2)[C@H]1CO[C@H]1CC[C@@H](c2ccccc2)CC1    78.6
COC(=O)c1csc(N2CC[C@H](NS(C)(=O)=O)[C@@H]2CO[C@H]2CC[C@@H](c3ccccc3)CC2)n1    93
CS(=O)(=O)N[C@H]1CCN(c2csc(C3CC3)n2)[C@H]1CO[C@H]1CC[C@@H](c2ccccc2)CC1    99.4

A: CS(=O)(=O)N[C@H]1CCN(c2cnc3oncc3c2)[C@H]1CO[C@H]1CC[C@@H](c2ccccc2)CC1
B: CS(=O)(=O)N[C@H]1CCN(c2ccc(C(F)F)cc2F)[C@H]1CO[C@H]1CC[C@@H](c2ccccc2)CC1
C: CS(=O)(=O)N[C@H]1CCN(c2cc(C(F)F)cc(C(F)F)n2)[C@H]1CO[C@H]1CC[C@@H](c2ccccc2)CC1
# input Rank entries according to their % max agonist effect (Emax), from the largest number down. Answer by listing the labels in the order asked for.
# output A, B, C
(A: 87.6%, B: 57.5%, C: 15.8%)
